# Experimental target: TACE (Homo sapiens, UniProt P78536)
# Sequence (P78536 215-824): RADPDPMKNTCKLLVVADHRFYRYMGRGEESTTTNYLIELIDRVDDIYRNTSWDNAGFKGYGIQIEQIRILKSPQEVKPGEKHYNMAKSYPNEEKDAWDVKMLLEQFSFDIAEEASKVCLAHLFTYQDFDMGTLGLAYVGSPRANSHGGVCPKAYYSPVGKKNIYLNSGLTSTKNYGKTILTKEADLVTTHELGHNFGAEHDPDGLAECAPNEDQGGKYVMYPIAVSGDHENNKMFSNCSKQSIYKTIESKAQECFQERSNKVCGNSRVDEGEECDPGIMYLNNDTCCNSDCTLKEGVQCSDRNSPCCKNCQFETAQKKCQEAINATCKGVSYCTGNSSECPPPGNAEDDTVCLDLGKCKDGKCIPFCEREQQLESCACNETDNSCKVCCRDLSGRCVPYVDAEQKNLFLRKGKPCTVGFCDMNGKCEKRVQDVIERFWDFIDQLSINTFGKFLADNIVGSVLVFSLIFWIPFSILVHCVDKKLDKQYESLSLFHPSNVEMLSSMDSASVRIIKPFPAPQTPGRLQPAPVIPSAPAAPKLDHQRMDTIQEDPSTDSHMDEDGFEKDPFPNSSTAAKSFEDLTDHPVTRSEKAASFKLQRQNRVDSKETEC
# Assay name: TACE inhibition (fluorescent peptidyl substrate)
# Assay type: biochemical
# Details: In Vitro Inhibition of TACE, 1 uM; read-out: % Inhibition at 1 uM
Measure: inhibition at 1 µM (%)
Entry rule: numbers only, all in %.

Request: inhibition at 1 µM, test system TACE (Homo sapiens, UniProt P78536), entry CC#CCOc1ccc(S(=O)(=O)N[C@H](C(=O)NO)[C@@H](C)CC)cc1 [Example 89] 56.8

Same for CC#CCOc1ccc(S(=O)(=O)N[C@@H](CSCNC(C)=O)C(=O)NO)cc1 [Example 96] 22

Again, but for CC#CCOc1ccc(S(=O)(=O)N[C@@H](CCN)C(=O)NO)cc1 [Example 70] 21.1

// same read-out, input: CC#CCOc1ccc(S(=O)(=O)N2CCC[C@@H]2C(=O)NO)cc1 [Example 82] 98.4

Another molecule to check: CC#CCOc1ccc(S(=O)(=O)N[C@@H](Cc2cnc[nH]2)C(=O)NO)cc1 [Example 87] 47.8

Proceed to CC#CCOc1ccc(S(=O)(=O)N[C@@H](Cc2ccc(OCc3ccccc3)cc2)C(=O)NO)cc1 [Example 103] 52.8

Would you mind doing CC#CCOc1ccc(S(=O)(=O)N[C@@H](CC(=O)O)C(=O)NO)cc1 [Example 67] as well? 46.2

Entry to check: CC#CCOc1ccc(S(=O)(=O)N[C@H](CCCN)C(=O)NO)cc1 [Example 76] 29.7

* * *

# Experimental target: TACE (Homo sapiens, UniProt P78536)
# Assay name: TACE inhibition (fluorescent peptidyl substrate)
# Assay type: biochemical
# Details: In Vitro Inhibition of TACE, 1 uM; read-out: % Inhibition at 1 uM
Form field: inhibition at 1 µM (one value per entry).
Enter your answer as a number in %; do not include the unit.

Solved entries (count: 3):
1) CC#CCOc1ccc(S(=O)(=O)N[C@@H](C(=O)NO)C2CCCCC2)cc1; 101
2) CC#CCOc1ccc(S(=O)(=O)N[C@H](C(=O)NO)c2ccccc2)cc1; 98.6
3) CC#CCOc1ccc(S(=O)(=O)N[C@@H](CCCCN)C(=O)NO)cc1; 102

Turning to the following compound.
Value lookup for inhibition at 1 µM; key = `CC#CCOc1ccc(S(=O)(=O)N[C@H](CSCc2ccc(OC)cc2)C(=O)NO)cc1` 3

* * *

# Experimental target: MMP-13 (Homo sapiens)
pIC50: −log10 of the molar value. Counter-ions that a name gives are not always drawn.
Threshold rule: pIC50 greater than or equal to 8 is Criterion met; below that, Criterion not met.

Solved entries:
1. CC#CCOc1ccc(S(=O)(=O)N(C)C(C(=O)NO)C(C)(C)SCCCN(CC)CC)cc1 (stereo not shown); Criterion met
2. CC#CCOc1ccc(S(=O)(=O)N(CC(=O)NO)Cc2cccnc2)cc1 [Example 23, hydrochloride]; Criterion not met

Identify whether the reported pIC50 of the following molecule is 8 or greater: CC#CCOc1ccc(S(=O)(=O)N2CCN(C)CCC2C(=O)NO)cc1 (stereo not shown) Criterion not met

Please give the result for CC#CCOc1ccc(S(=O)(=O)N2CCN(C(=O)c3ccccc3)CCC2C(=O)NO)cc1 (stereo not shown) too. Criterion met

Entry CC#CCOc1ccc(S(=O)(=O)N(CC#CCN(CC)CC)C(C(=O)NO)C(C)C)cc1 (stereo not shown) please Criterion not met

Please answer likewise for `CC#CCOc1ccc(S(=O)(=O)N(C)CC(=O)NO)cc1` Criterion not met

All values here come from patent EP1144368B1.
